# TEST SUMMARY: A549 cell cytotoxicity, cytotoxicity control, plate reader, single point, cherry-pick (AID 743188)
# CONDITION PARAMETERS: at 25 µM
Some of the results follow.
MEASURED METRIC: cell viability change % (negative = cytotoxic) (%)

[
  {
    "STRUCTURE SMILES": "CCc1c(C)sc(NC(=O)c2cccs2)c1C(N)=O",
    "VALUE": -14
  },
  {
    "STRUCTURE SMILES": "O=C(CCNC(=O)c1ccccc1)Nc1nc2ccccc2s1",
    "VALUE": -14
  },
  {
    "STRUCTURE SMILES": "COc1ccc(N=Cc2c(O)[nH]c3ccccc23)cc1OC",
    "VALUE": 0.475
  },
  {
    "STRUCTURE SMILES": "O=C(NN=Cc1ccc2c(c1)CCC2)c1ccccc1O",
    "VALUE": -5.69
  },
  {
    "STRUCTURE SMILES": "Cc1nc(-c2ccccc2)sc1-c1nnc(C2CC2)o1",
    "VALUE": 1.56
  },
  {
    "STRUCTURE SMILES": "CN(C)c1ccc(CSc2ccccc2)cc1",
    "VALUE": 5.13
  }
]
